B1: library; numbered along this chain (parent)
chain: MEVVDPQQLGMFTEGELMSVGMDTFIHRIDSTEVIYQPRRKRAKLIGKYLMGDLLGEGSYGKVKEVLDSETLCRRAVKILKKKKLRRIPNGEANVKKEIQLLRRLRHKNVIQLVDVLYNEEKQKMYMVMEYCVCGMQEMLDSVPEKRFPVCQAHGYFCQLIDGLEYLHSQGIVHKDIKPGNLLLTTGGTLKISDLGVAEALHPFAADDTCRTSQGSPAFQPPEIANGLDTFSGFKVDIWSAGVTLYNITTGLYPFEGDNIYKLFENIGKGSYAIPGDCGPPLSDLLKGMLEYEPAKRFSIRQIRQHSWFRKKHPPAEAPVPIPPSPDTKDRWRSMTVVPYLEDLHGADEDEDLFDIEDDIIYTQDFTVPGQVPEEEASHNGQRRGLPKAVCMNGTEAAQLSTKSRAEGRAPNPARKACSASSKIRRLSACKQQ

Variants of: B1
assay_explanation: STK11 functional score (HeLa growth suppression), rescaled enrichment; synonymous median = 1, nonsense median = 0 (normalised score)
test_settings: with HeLa; variant type: missense
Rule: label 1 for STK11 functional score not less than 1, label 0 for anything less.

Quick check, STK11 functional score >= 1? S142Y
label 1

Textbook exercise: given the entry L190W , state whether its STK11 functional score is greater than or equal to 1.
label 0

Has M392A a recorded STK11 functional score greater than or equal to 1?
label 1

# bool: STK11 functional score of R87Y >= 1
label 1

// inclusive: STK11 functional score at least 1? input: R310I
label 1

More entries:
Does STK11 functional score meet or surpass 1 for T24H ?
label 1

Decide: STK11 functional score of F234C >= 1?
label 1
